# Test system: H1-HeLa cells
# assayText: 50% toxic dose (TD50)
# Format: cell-based
metricName: TD50

smilesNotation | testedTarget | reported
O=C(CCc1ccc(O)cc1)c1c(O)cc(O)cc1O | H1-HeLa cells | 160
CCCCCC(=O)c1c(O)c(Cl)c(O)c(Cl)c1O | H1-HeLa cells | 1875
CCCCCC(=O)c1c(O)c(Cl)c(O)c(Cl)c1OC | H1-HeLa cells | 40
CCCCCC(=O)c1c(O)c(Cl)c(OC)c(Cl)c1O | H1-HeLa cells | 30

* * *

# Test system: human rhinovirus 14, strain 1059
# assayText: Inhibition of virus in whole-cell assay (inhibition of cytopathic effect)
# Format: cell-based
# conditionDescription: Rhinovirus B, 48 h; H1-HeLa cells, HRV 14, 2 days at 34° C; Table 1, Formula IV; read-out: ICE50

smilesNotation | testedTarget | IC50 (µM)
COc1cc(O)c(Cl)c(O)c1C(C)=O | human rhinovirus 14, strain 1059 | 11
